- assay.system: T1, Human IL2Rγ extracellular domain expressed with a C-terminal myc-myc-hexahistidine tag (human)
- T1 construct: also called hIL-2Rg-MMH; hIL-2RG-MMH
- T1 chain: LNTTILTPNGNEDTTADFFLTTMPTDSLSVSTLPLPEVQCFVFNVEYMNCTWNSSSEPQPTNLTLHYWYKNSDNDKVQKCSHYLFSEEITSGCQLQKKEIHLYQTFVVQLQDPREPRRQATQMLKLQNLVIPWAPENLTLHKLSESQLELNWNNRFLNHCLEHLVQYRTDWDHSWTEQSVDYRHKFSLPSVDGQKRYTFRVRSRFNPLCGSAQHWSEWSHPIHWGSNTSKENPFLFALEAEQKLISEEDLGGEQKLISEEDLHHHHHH
- measurement.notes: SPR, captured mAb, 25C, dissociation pH 7.4
# note: boundary value 100 RU maps to f; 100 nM Ag Bound (RU) below it maps to t

Request: Input H4H12889P (antibody, human IgG4 S228P, kappa, V domains shown, anti-IL2Rgamma mAb expressed with human IgG4 Fc; also called REGN7257) VH: EVQLVESGGGLVQPGGSLRLSCAASGFIFSSYEMHWVRQAPGKGLEWISYISSSGTTIYYADSVKGRFTISRDNAKNSLYLHMNSLRAEDTAVYYCTRARITGTFDVFDIWGQGTMVTVSS VL: DIQMTQSPSSLSASVGDRVTITCRASQSISSYLNWYQQKPGKAPKLLIFAASNLQSGVPSRFSGSRSGTDFTLTISSLQPEDFATYYCQQNYNIPYTFGQGTKLEIKR ; condition: 100 nM Ag Bound (RU) strictly below 100 RU. Does it hold?
Result: f

Request: Input H4H12871P (antibody, human IgG4 S228P, kappa, V domains shown, anti-IL2Rgamma mAb expressed with human IgG4 Fc; also called REGN9434) VH: QVQLQESGPGLVKPSQTLSLTCTVSGGSITSGGYYWSWIRQYPGQGLEWIGYIYYSGKTYYNPSFTSRITISVDTSKKQFSLKMSSVTAADTAVYYCARAGFTSSNGWFDPWGQGTLVTVSS VL: DIQMTQSPSSLSASVGDRVTITCRASQNIRSYLNWYQQKPGKAPKLLIYSASSLQSGVPSRFSGSGSGTDFTLTISSLQPEDFPTYYCQQTYSSPWTFGPGTKVEIKR ; condition: 100 nM Ag Bound (RU) strictly below 100 RU. Does it hold?
Result: f

Request: Input H4H12886P (antibody, human IgG4 S228P, kappa, V domains shown, anti-IL2Rgamma mAb expressed with human IgG4 Fc) VH: EVQLVESGGGLVKPGGSLRLSCAASGFTFSTAWMSWVRQSPGRGLEWVGRMKSKTDGGTTFYAAPVKGRFTISRDDSKNTLYLQMNSLKTEDTAVYYCTTGLVPAFYKYYGVDVWGQGTTVTVSS VL: DIQMTQSPSSLSASVGDRITITCQASQDITNYLNWYQQKPGKAPNLLIYDASNLVTGVPSRFSGSGSGTDFTFTILSLQPEDIATYYCQQYDSLLTFGPGTKVDIKR ; condition: 100 nM Ag Bound (RU) strictly below 100 RU. Does it hold?
Result: f

Request: Input H4H12900P (antibody, human IgG4 S228P, kappa, V domains shown, anti-IL2Rgamma mAb expressed with human IgG4 Fc) VH: QVQLVESGGGLVKPGGSLRLSCEASGFTFNDFYMTWIRQAPGKGLEWIAYISKSGDKMRYADSVKGRFSTSRDNAKNSLSLQMNSLRAEDTAVYYCARFYGDIWGQGTLVTVSS VL: DIQLTQSPSFLSASVGDRVTITCWASQDISSFLVWYQQKPGKAPNLLIYAASALQSGVPSRFSGSGSGTEFTLTISSLQPEDFASYYCEQLNNYPWTFGQGTKVEIKR ; condition: 100 nM Ag Bound (RU) strictly below 100 RU. Does it hold?
Result: f

Request: Input H4H12874P (antibody, human IgG4 S228P, kappa, V domains shown, anti-IL2Rgamma mAb expressed with human IgG4 Fc) VH: QVQLVESGGGVVQPGRSLRLSCAASGFNFRNFGMHWVRQAPGKGLEWVAGILYDGSSKYYADSVKDRFTISRDNSKNTLFLQMNSLRAEDTAMYYCAKEEDTAMVPFDSWGPGTLVTVSS VL: DIQLTQSPSFLSASVGDRVTITCWASQGISSYLAWYQQKPGKAPTLLIYAASTLQSGVPSRFSGSGSGTEFTLTISSLQPEDFASYYCQQLKSYPLTFGGGTKVEIKR ; condition: 100 nM Ag Bound (RU) strictly below 100 RU. Does it hold?
Result: t

Request: Input H4H13538P (antibody, human IgG4 S228P, kappa, V domains shown, anti-IL2Rgamma mAb expressed with human IgG4 Fc) VH: EVQLVESGGGLVQPGGSLGLSCAASGFTFSNYAMSWVRQAPGKGLEWVSAVSGGGGGTYYADSVKGRFTISRDNSKNTVLLQMNSLRAEDTAVYYCARGRTGGLDYWGPGTLVTVSS VL: DVVMTQSPLSLPVIFGQPASISCRSSQSLVDSDGNTYLNWLQQRPGQSPRRLIYEVSNRDSGVPDRFSGSGSGTDFTLTISRVEAEDVGIYYCMQGTRWPPTFGGGTKVEIKR ; condition: 100 nM Ag Bound (RU) strictly below 100 RU. Does it hold?
Result: t

Request: Input H4H12890P (antibody, human IgG4 S228P, kappa, V domains shown, anti-IL2Rgamma mAb expressed with human IgG4 Fc) VH: EVQLVESGGGLVQPGGSLRLSCAASGFTFNNYAMHWVRQAPGKGLEYVSSISSSGGSTYYEDSVKGRFTISRDNSKNTLYLQMGSLRAEDMAVYYCARSFYGSGTYYDTFDMWGQGTMVTVSS VL: DIQMTQSPSSLSASIGDRVTITCRASQSISRYLNWYQQKPGKAPKLLIYAASSLQSGVPSRFSASGSGTDFTLTISSLQPEDFATYYCQQSYSTPFTFGQGTKLEIKR ; condition: 100 nM Ag Bound (RU) strictly below 100 RU. Does it hold?
Result: t

Values compiled from patent US20200247894A1.
